# credit: paper PMC11018852

experimental target: IDH1 (Homo sapiens)
Construct: residues 1–414
Sequence (O75874 whole entry, the tested form may be a part): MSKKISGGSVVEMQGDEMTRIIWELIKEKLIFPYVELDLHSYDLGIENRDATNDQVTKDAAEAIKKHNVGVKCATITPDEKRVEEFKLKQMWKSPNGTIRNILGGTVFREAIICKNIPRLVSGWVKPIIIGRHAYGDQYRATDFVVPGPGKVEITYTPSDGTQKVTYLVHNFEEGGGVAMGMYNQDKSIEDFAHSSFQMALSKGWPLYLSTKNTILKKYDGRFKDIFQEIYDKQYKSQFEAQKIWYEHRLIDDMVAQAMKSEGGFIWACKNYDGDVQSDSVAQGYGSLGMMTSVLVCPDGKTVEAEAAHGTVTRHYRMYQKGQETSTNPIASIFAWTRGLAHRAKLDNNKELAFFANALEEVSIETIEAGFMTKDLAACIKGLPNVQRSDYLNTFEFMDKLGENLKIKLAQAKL
assay procedure: biolayer interferometry on recombinant IDH1 (repeat Kd […]); supported by DSF, CETSA, LC-MS/MS adduct at Cys297, enzyme activation EC50 […]
Assay type: binding
pKd: −log10 of the molar value.
quantity: pKd

>>> print(df.to_string())
                                   molecule  quantity  reported_result
0  O=C(O)[C@H]1O[C@@H](Oc2cc3oc(-c4ccc(O)cc4)cc(=O)c3c(O)c2O)[C@H](O)[C@@H](O)[C@@H]1O [Scu, scutellarin]       pKd             4.94
